experiment: MMV: MTT Cytotoxicity Assay Day 7 pi of Assay #7 (compound washed out Day 1 pi), U87-CD4-CXCR4 cells, % cell death @ 5mM compound; assay type: toxicity, cell-based; details: human, u87-cd4-cxcr4, 5000 µM
observation_type: % Cell Death
API note: the answer field is a bare number with no unit suffix.

% Cell Death for `CCOc1ccc(-c2nc(NC(=O)c3cccc(S(C)(=O)=O)c3)sc2C)cc1` ?
-38

Try Oc1ccccc1CN1CCC2(CCCN(Cc3ccccc3F)C2)C1 (stereo not drawn) next.
1

Same thing, different compound: COc1ccc(C2C(C(=O)Nc3cccc(OC)c3)c3ccccc3C(=O)N2C2CCCCC2)cc1 (stereo not drawn)
22

Entry COc1cccc(C2(C)Nc3ccccc3-c3nc4ccccc4n32)c1 (stereo not drawn) please
25

Continue with `CCCCCCc1cc2cc(-c3csc(C=Cc4ccccc4)n3)c(=O)oc2cc1O`
-39

Same for `CCCOCc1cc(CN2CCN(c3cccc(Cl)c3)CC2)c(O)c2ncccc12`
-7

Moving on to the next compound: `CCN1CCN(Cc2ccc(NC(=O)c3cc4ccc5cccnc5c4[nH]3)cc2)CC1`
-2

Now the same for `CCN(Cc1ccccc1)C1CCN(Cc2cc(Br)ccc2O)CC1.O=C(O)C(=O)O`
0

What about `COc1cc(-c2nc(-c3ccc(Sc4ccccc4)cc3)c(-c3ccccc3)[nH]2)cc(OC)c1O` ?
-13

// query: C=CC12CCN(CC1)C(C(O)c1ccnc3ccc(OC)cc13)C2.Cl (stereo not drawn)
-23

Try the compound `CCc1ccc(Nc2cc(C)nc3nc(C)nn23)cc1`
4

Further, for `Cc1ccc(OCCCCCCNCCO)c(C)c1` ?
-10

Then what about the compound `CCOC(=O)C1(Cc2ccccc2)CCN(Cc2cccc(OC)c2O)CC1` ?
-16

Now try `Oc1ccc(Cl)cc1CNc1nc2ccccc2[nH]1` .
-38

Then `CNCCCNc1ccnc2cc(Cl)ccc12` ?
98

// repeat for `CCCc1cc(O)c2c3c(c(=O)oc2c1)CN(C)CC3` and report
57

Also need `CC(C)(C)c1ccc2c(c1)CN(Cc1ccc(Cl)cc1)CO2` , thanks.
18

Try this compound too: `O=C(NC1CCN(Cc2ccccc2)CC1)c1cc2nc(-c3ccc(Cl)s3)cc(C(F)(F)F)n2n1`
-15

What do you have for `O=C(Nc1ccc(Cl)cc1)N1CCN(c2ccc3nncn3n2)CC1` ?
87

Then this compound: `c1ccc(CNc2nc(Nc3ccccc3)nc3ccccc23)cc1`
-7

Follow-up item: `CCOc1ccc2c(c1)CN(Cc1ccc(Cl)cc1)CO2`
-14

Do the same for `CCN1CCN(c2cc(C)c3cc(NC(=O)c4ccc(OC)c(OC)c4)ccc3n2)CC1` please
61

What about this compound? `Cc1cc(N(C)C)nc(Nc2ccc(NC(=O)Nc3ccccc3)cc2)n1`
-7
